Values were extracted from patent US20180112008A1.

Target: T1, MUC16 18mer (not fully specified)
T1 construct: also called non-glycosylated 18-mer MUC16 peptide
T1 peptide: CTRNGTQLQNFTLDRSSV
Assay: ELISA 12/24/13 (sups from time of freezing), dilution 400, column 18
Ends that are not written are not given here.
readout-label: ELISA signal
Number only, please.

Asked: I would be grateful if you could share the reported ELISA signal for 16C5.C1 (antibody, V domains shown, Mouse monoclonal from a hybridoma) VH: QVTLKESGPGILQPSQTLSLTCSFSGFSLNTLGMGVGWIRQPSGKGLEWLAHIWWDDDKYYYPALKSRLTISRDTSKNQVFLKIANVDTADTATYYCARIGTAQATDALDYWGQGTSVTVSS VL: ELDMTQTPPSLSASVGETVRIRCLASEDIYSGISWYQQKPGKPPTLLIYGASNLESGVPPRFSGSGSGTDYTLTIGGVQAEDAATYYCLGGYSYSSTLTFGAGTNVEIK .
Given back: 0.63
